- Test system: SK-MEL-28 melanoma
- experimentDescription: NCI tumour cell line growth inhibition, 48 h
measurementType: TGI

molecule | measurementType | measuredResult
CCN(CC)c1ccc2c(c1)OC(=O)C(c1nnc(-c3ccc([N+](=O)[O-])cc3)o1)C2 (stereo not drawn) | TGI | > 100 µM
O=C(O)c1c[nH]c2c(=O)[nH]cnc12 | TGI | > 100 µM
C[n+]1noc(/N=N\[O-])c1-c1cc(-c2c(/N=N\[O-])on[n+]2C)cc(-c2c(/N=N/[O-])on[n+]2C)c1 | TGI | > 100 µM
COc1ccc(C(C#N)NC23CC4CC(CC(C4)C2)C3)cc1OC (stereo not drawn) | TGI | > 100 µM
COc1ccc(N(C)CN(C)c2nc(N(C)C)nc(N(C)C)n2)cc1 | TGI | > 100 µM
Cc1onc(-c2c(F)cccc2Cl)c1-c1ncc(-c2ccc(Cl)cc2)o1 | TGI | > 100 µM
N#CC(c1ccc(Cl)cc1)c1c(O)nc2ccc(=N)cc-2n1O (stereo not drawn) | TGI | > 100 µM
CO[C@H]1[C@@H](O)[C@@H](C)O[C@@H](O[C@H]2CC[C@@]3(C)[C@H](CC[C@@H]4[C@@H]3CC[C@]3(C)[C@@H](C5=CC(=O)OC5)CC[C@]43O)C2)[C@@H]1O | TGI | 1.01 µM
CCCCSN1C(=O)c2ccccc2C1=S | TGI | > 100 µM
CCOC(=O)C1=C(C)NC2SC(=O)/C(=C\c3ccccc3Cl)N2C1c1ccccc1 (stereo not drawn) | TGI | > 100 µM
COc1cc(-c2nn(-c3ccc(NC(=O)Nc4ccc(Cl)c(Cl)c4)cc3)cc2-c2ccncc2)ccc1Cl | TGI | 17.9 µM
NC(=O)C(c1ccccc1)N1OC2C(=O)N(Cc3ccccc3)C(=O)C2C1c1cccc(Oc2ccc(Cl)cc2)c1 (stereo not drawn) | TGI | > 100 µM
Cc1cccc2[nH]c3cc(O)cc(O)c3c(=O)c12 | TGI | > 10 µM
Cc1csc(/C=N/NC(=O)c2nnn(-c3ccnc4c(C(F)(F)F)cccc34)c2C)c1 | TGI | > 100 µM
CNC(=O)CCNC(=O)CCC(=O)N(C)C | TGI | > 100 µM
Cc1nc(Cl)c(Cl)c(Cl)n1 | TGI | 1.2 µM
COC(=O)CCC(C)[C@H]1CCC2C3C(C[C@H](OC(C)=O)[C@@]21C)[C@@]1(C)CCC2(C[C@H]1C[C@H]3OC(C)=O)OOC1(CCC(C)CC1)OO2 (stereo partly drawn) | TGI | > 100 µM
CC1=CCC2(C#N)CCC1C2O (stereo not drawn) | TGI | > 100 µM
O=c1[nH]c(=O)n(C2CC(O)C(CO)O2)cc1OCCc1ccccc1 (stereo not drawn) | TGI | > 100 µM
COc1ccc(-c2cnoc2-c2ccc(OC)c(OC)c2)cc1OC | TGI | > 21.9 µM
CC(=O)Nc1ccc(-c2c3nc(c(-c4cc5ccccc5[n+](C)c4)c4ccc([nH]4)c(-c4ccc(NC(C)=O)cc4)c4nc(c(-c5cc6ccccc6[n+](C)c5)c5ccc2[nH]5)C=C4)C=C3)cc1 | TGI | 29.2 µM
CSc1ccccc1P(c1ccccc1SC)c1ccccc1SC | TGI | > 100 µM
NC1=NC(c2ccc(Cl)cc2)N(c2ccc(S(=O)(=O)Nc3ncccn3)cc2)C(N)=N1 (stereo not drawn) | TGI | > 100 µM
COc1ccc(C[n+]2c3ccccc3n3c4ccc(N)cc4ccc32)c(OC)c1OC | TGI | 5.56 µM
CC1CC(=O)Nc2cc(Cl)ccc2N1C(=O)C1CC1 (stereo not drawn) | TGI | > 100 µM
CN1CCN(c2ccc(-c3ccc4ncc(C#N)c(Nc5ccc(F)c(Cl)c5)c4c3)cc2)CC1 | TGI | 3.66 µM
COc1ccc(-c2cc(-c3ccccc3)n(C3OCC(OC(C)=O)C(OC(C)=O)C3OC(C)=O)c(=S)c2C#N)cc1 (stereo not drawn) | TGI | > 100 µM
O=C1c2ccccc2C(=O)C2C1C1C(=O)c3ccccc3C(=O)C21 (stereo not drawn) | TGI | > 100 µM
C=C(C)C#CC(O)(C(=O)OC1CCN(C)CC1)C(C)C (stereo not drawn) | TGI | > 100 µM
COc1cc(O)c2c(=O)c(OC)c(-c3ccc4c(c3)OCO4)oc2c1 | TGI | > 100 µM
NC(=O)c1cc(-c2ccncc2)cc(-c2ccccc2)c1N | TGI | > 25 µM
Nc1ncnc2c1ncn2C1OC(CSC(F)(F)F)C(O)C1O (stereo not drawn) | TGI | > 100 µM
COc1ccc(CN2C(=O)C(Cc3cc(OC)c(OC)c(C)c3OC)NC(=O)/C2=C/c2cc(OC)c(OC)c(C)c2OC)cc1 (stereo not drawn) | TGI | > 100 µM

====

Each entry below carries its reported TGI.
- System: MCF7 breast
- experimentDescription: NCI tumour cell line growth inhibition, 48 h

compoundString | TGI
COC(=O)/C=C/c1cnc2c(c1)oc(=O)n2CCc1ccccn1 | > 100 µM
COc1ccc(/C(CCl)=C(\Nc2ccccc2)c2ccc(OC)c(OC)c2)cc1OC | > 100 µM
NC(=O)c1cc(-c2ccc(-n3ccnc3)cc2)n[nH]c1=O | > 100 µM

====

Each entry below carries its reported TGI.
- Tested on: ACHN renal
- experimentDescription: NCI tumour cell line growth inhibition, 48 h

molecule | TGI
C=C[C@@H](OCOCC[Si](C)(C)C)[C@@H](CC)OC(CCCOC(=O)C(C)(C)C)OC (stereo partly drawn) | > 100 µM
CN1CCN(CCCOc2cccc3nc(Nc4ccc(Cl)c(F)c4)ccc23)CC1 | 3.07 µM
COC(=O)c1ccccc1/C=C1/Cc2cccc(C)c2C1=O | > 100 µM
O=c1[nH]c(=O)n(C2CC(O)C(CO)O2)cc1OCCc1ccccc1 (stereo not drawn) | > 100 µM
O=S1(=O)NNC(=NCc2ccc(Cl)c(Cl)c2)c2ccccc21 | > 100 µM
C=C1CC(Cn2ccc(=O)[nH]c2=O)(c2ccc(-c3ccccc3)cc2)OC1=O (stereo not drawn) | 3.25 µM
O=C1c2ccccc2C(=O)C2C1C1C(=O)c3ccccc3C(=O)C21 (stereo not drawn) | > 100 µM
CCC(CS(=O)(=O)O)[N+](=O)[O-] (stereo not drawn) | > 100 µM

====

Each entry below carries its reported TGI.
- System: RPMI-8226 leukemia
- experimentDescription: NCI tumour cell line growth inhibition, 48 h

compound | TGI
CO[C@H]1O[C@@H]2CO[C@@H](c3ccccc3)O[C@H]2[C@@H]2CC=CCC[C@]12O | 90.1 µM
O=c1oc2cc(N=Cc3ccccc3Cl)ccc2c2ccccc12 | > 100 µM
CN(C)/C(N)=N/C(N)=Nc1cccc(Cl)c1 | > 100 µM
O=C(/C=C1\C(=O)N(Cc2ccc([N+](=O)[O-])cc2)c2ccccc21)c1ccc(OCCN2CCCCC2)cc1 | 4.13 µM
Cc1nc2ccccc2c(=O)n1-c1n[nH]c2ccccc12 | > 100 µM
COc1ccc(C(C#N)NC23CC4CC(CC(C4)C2)C3)cc1OC (stereo unspecified) | > 100 µM

====

- Tested on: UACC-257 melanoma
- experimentDescription: NCI tumour cell line growth inhibition, 48 h
measurementType: TGI

compound | studyTarget | measurementType | measuredResult
CSc1c(C#N)c(O)n(-c2ccc(C)cc2)c(=O)c1C#N | UACC-257 melanoma | TGI | > 100 µM
COC(=O)[C@H]1[C@H]2C[C@@H]3c4[nH]c5cc(OC)ccc5c4CCN3C[C@H]2C[C@@H](OC(=O)c2cc(OC)c(OC)c(OC)c2)[C@@H]1OC | UACC-257 melanoma | TGI | 42.1 µM
Clc1ccccc1C(n1ncc2ccccc21)n1ncc2ccccc21 | UACC-257 melanoma | TGI | > 100 µM
CN(C)c1ccc2c(c1)CN1C(=O)c3ccccc3C1=N2 | UACC-257 melanoma | TGI | > 100 µM
CC1(C)OCC2(CO1)CSCCCSCC1(COC(C)(C)OC1)CSCCCSC2 | UACC-257 melanoma | TGI | > 100 µM
COc1ccc(-c2cc(-c3ccc(Cl)cc3)n(C3OC(CO)C(O)C(O)C3O)c(=S)c2C#N)cc1 (configuration not stated) | UACC-257 melanoma | TGI | > 100 µM
Cc1csc(/C=N/NC(=O)c2nnn(-c3ccnc4c(C(F)(F)F)cccc34)c2C)c1 | UACC-257 melanoma | TGI | 51.4 µM
CCN(CC)C(=O)CC1=C(C)/C(=C/c2[nH]c(-c3ccc[nH]3)cc2OC)N=C1C | UACC-257 melanoma | TGI | 4.85 µM
COc1ccc(CN2C(=O)C(Cc3cc(OC)c(OC)c(C)c3OC)NC(=O)/C2=C/c2cc(OC)c(OC)c(C)c2OC)cc1 (configuration not stated) | UACC-257 melanoma | TGI | > 100 µM
O=C(O)CN=C(C(=NCC(=O)O)c1ccccc1)c1ccccc1 | UACC-257 melanoma | TGI | > 100 µM
O=C(C/C(=N\NC(=O)C[n+]1ccccc1)C(=O)Nc1nc2ccc([N+](=O)[O-])cc2s1)CC(c1ccccc1)c1c(O)c2ccccc2oc1=O (configuration not stated) | UACC-257 melanoma | TGI | > 100 µM
O=C1CSC(/C(=C/c2ccccc2)c2nc3ccccc3[nH]2)=N1 | UACC-257 melanoma | TGI | > 100 µM
O=C1NCN(c2ccccc2)C12CCN(CCc1ccc3[nH]c(=S)[nH]c3c1)CC2 | UACC-257 melanoma | TGI | 15.6 µM
Cc1cccc2[nH]c3cc(O)cc(O)c3c(=O)c12 | UACC-257 melanoma | TGI | > 10 µM
C=C1CC(Cn2ccc(=O)[nH]c2=O)(c2ccc(-c3ccccc3)cc2)OC1=O (configuration not stated) | UACC-257 melanoma | TGI | 3.88 µM
CCCCN(CCCC)c1ccc(C(=N)c2ccc(N(C)C)cc2)cc1 | UACC-257 melanoma | TGI | 1.35 µM
CCC(CS(=O)(=O)O)[N+](=O)[O-] (configuration not stated) | UACC-257 melanoma | TGI | > 100 µM
